Target sequence: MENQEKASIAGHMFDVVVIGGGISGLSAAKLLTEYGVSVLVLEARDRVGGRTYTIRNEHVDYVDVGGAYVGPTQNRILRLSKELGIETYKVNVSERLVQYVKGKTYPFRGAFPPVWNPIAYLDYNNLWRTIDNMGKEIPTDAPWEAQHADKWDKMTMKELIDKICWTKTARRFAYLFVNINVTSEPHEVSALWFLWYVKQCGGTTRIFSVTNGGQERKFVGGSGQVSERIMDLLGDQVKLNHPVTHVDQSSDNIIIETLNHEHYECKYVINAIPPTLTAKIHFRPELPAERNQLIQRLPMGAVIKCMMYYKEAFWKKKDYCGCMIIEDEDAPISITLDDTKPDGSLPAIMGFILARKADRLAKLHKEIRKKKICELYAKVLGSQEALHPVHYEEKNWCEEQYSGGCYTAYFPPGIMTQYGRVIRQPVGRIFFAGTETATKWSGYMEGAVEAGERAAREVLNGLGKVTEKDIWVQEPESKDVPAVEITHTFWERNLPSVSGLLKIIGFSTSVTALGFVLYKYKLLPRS
reported.metric: IC50 (µM)
The response must be a number in µM with no trailing unit.

// query Provide only the value of recorded IC50 for O=C(Nc1cccc(Cl)c1)c1cc(=O)c2cc(O)ccc2o1
// result 9

###

- Organism: Homo sapiens
- assay.name: Selectivity index, ratio of IC50 for human MAO-A to IC50 for human MAO-B
Record form. Attribute: Ratio IC50. Fill in for each entry.

// query Provide only the value of recorded Ratio IC50 for COc1ccc2occ(C(=O)Nc3ccc(O)cc3)c(=O)c2c1
// result > 15

// query Provide only the value of recorded Ratio IC50 for COc1ccc2occ(C(=O)Nc3ccc(Cl)cc3)c(=O)c2c1
// result > 970

// query Provide only the value of recorded Ratio IC50 for COc1ccc2occ(C(=O)Nc3cccc(Cl)c3)c(=O)c2c1
// result > 1470

// query Provide only the value of recorded Ratio IC50 for Cc1ccc(NC(=O)c2coc3cccc(O)c3c2=O)cc1
// result > 637

// query Provide only the value of recorded Ratio IC50 for O=C(Nc1ccccc1)c1cc(=O)c2cc(O)ccc2o1
// result > 319

// query Provide only the value of recorded Ratio IC50 for COc1ccc2occ(C(=O)Nc3ccccc3)c(=O)c2c1
// result > 239

// query Provide only the value of recorded Ratio IC50 for O=C(Nc1cccc(Cl)c1)c1coc2cccc(O)c2c1=O
// result > 400

// query Provide only the value of recorded Ratio IC50 for Cc1ccc(NC(=O)c2coc3ccc(O)cc3c2=O)cc1C
// result > 38

// query Provide only the value of recorded Ratio IC50 for Cc1ccc(NC(=O)c2coc3ccc(O)cc3c2=O)cc1
// result > 29

// query Provide only the value of recorded Ratio IC50 for O=C(Nc1ccc(O)cc1)c1coc2cccc(O)c2c1=O
// result > 17

// query Provide only the value of recorded Ratio IC50 for O=C(Nc1ccc(Cl)cc1)c1coc2cccc(O)c2c1=O
// result > 1200

// query Provide only the value of recorded Ratio IC50 for O=C(Nc1ccccc1)c1coc2cccc(O)c2c1=O
// result > 769

// query Provide only the value of recorded Ratio IC50 for O=C(Nc1cccc(Cl)c1)c1coc2ccc(O)cc2c1=O
// result > 336

// query Provide only the value of recorded Ratio IC50 for COc1ccc2oc(C(=O)Nc3ccc(C)cc3)cc(=O)c2c1
// result > 0.061

// query Provide only the value of recorded Ratio IC50 for COc1ccc2occ(C(=O)Nc3ccc(C)cc3)c(=O)c2c1
// result > 48

// query Provide only the value of recorded Ratio IC50 for O=C(Nc1ccc(O)cc1)c1cc(=O)c2cc(O)ccc2o1
// result > 9.7

// query Provide only the value of recorded Ratio IC50 for O=C(Nc1ccc(Cl)cc1)c1cc(=O)c2cc(O)ccc2o1
// result > 700

// query Provide only the value of recorded Ratio IC50 for Cc1ccc(NC(=O)c2cc(=O)c3cc(O)ccc3o2)cc1C
// result 116

// query Provide only the value of recorded Ratio IC50 for COc1ccc2occ(C(=O)Nc3ccc(C)c(C)c3)c(=O)c2c1
// result > 352

// query Provide only the value of recorded Ratio IC50 for Cc1ccc(NC(=O)c2coc3cccc(O)c3c2=O)cc1C
// result > 649

// query Provide only the value of recorded Ratio IC50 for O=C(Nc1ccccc1)c1coc2ccc(O)cc2c1=O
// result > 42

// query Provide only the value of recorded Ratio IC50 for O=C(Nc1ccc(O)cc1)c1coc2ccc(O)cc2c1=O
// result > 2.1

// query Provide only the value of recorded Ratio IC50 for O=C(Nc1cccc(Cl)c1)c1cc(=O)c2cc(O)ccc2o1
// result 130

// query Provide only the value of recorded Ratio IC50 for O=C(Nc1ccc(Cl)cc1)c1coc2ccc(O)cc2c1=O
// result 64

// query Provide only the value of recorded Ratio IC50 for Cc1ccc(NC(=O)c2cc(=O)c3cc(O)ccc3o2)cc1
// result > 181
